Values from paper PMC7797070

studySystem: RelA^NTD (E. coli RelA NTD, 1-385) (Escherichia coli, UniProt P0AG20)
Sequence (P0AG20 1-385): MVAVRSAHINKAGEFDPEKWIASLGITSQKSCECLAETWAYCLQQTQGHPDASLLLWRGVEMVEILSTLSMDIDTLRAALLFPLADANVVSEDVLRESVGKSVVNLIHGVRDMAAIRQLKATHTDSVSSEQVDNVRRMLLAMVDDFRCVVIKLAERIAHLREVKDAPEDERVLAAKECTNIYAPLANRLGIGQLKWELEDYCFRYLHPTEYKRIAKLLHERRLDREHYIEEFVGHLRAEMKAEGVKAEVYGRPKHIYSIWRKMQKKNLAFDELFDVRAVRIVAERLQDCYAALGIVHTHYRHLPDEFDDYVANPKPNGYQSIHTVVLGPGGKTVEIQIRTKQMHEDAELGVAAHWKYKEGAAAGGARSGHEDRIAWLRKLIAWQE
assayEndpoint: pKd
# pKd = -log10(concentration in molar units)

Measured pKd of Nc1nc2c(ncn2[C@@H]2O[C@H](COP(=O)(O)OP(=O)(O)OP(=O)(O)O)[C@@H](OP(=O)(O)OP(=O)(O)O)[C@H]2O)c(=O)[nH]1 [pppGpp] : 5.16
